target: vitronectin receptor αvβ3 (Homo sapiens, UniProt P05106+P06756); test: Vn/293 cell test: inhibition of the binding of 293 cells to human vitronectin; settings: 293 cells cotransfected with αv and β3 subunits, binding to plates coated with human vitronectin, 90 min at 37° C.
Sequence (P06756 31-889 limits assumed): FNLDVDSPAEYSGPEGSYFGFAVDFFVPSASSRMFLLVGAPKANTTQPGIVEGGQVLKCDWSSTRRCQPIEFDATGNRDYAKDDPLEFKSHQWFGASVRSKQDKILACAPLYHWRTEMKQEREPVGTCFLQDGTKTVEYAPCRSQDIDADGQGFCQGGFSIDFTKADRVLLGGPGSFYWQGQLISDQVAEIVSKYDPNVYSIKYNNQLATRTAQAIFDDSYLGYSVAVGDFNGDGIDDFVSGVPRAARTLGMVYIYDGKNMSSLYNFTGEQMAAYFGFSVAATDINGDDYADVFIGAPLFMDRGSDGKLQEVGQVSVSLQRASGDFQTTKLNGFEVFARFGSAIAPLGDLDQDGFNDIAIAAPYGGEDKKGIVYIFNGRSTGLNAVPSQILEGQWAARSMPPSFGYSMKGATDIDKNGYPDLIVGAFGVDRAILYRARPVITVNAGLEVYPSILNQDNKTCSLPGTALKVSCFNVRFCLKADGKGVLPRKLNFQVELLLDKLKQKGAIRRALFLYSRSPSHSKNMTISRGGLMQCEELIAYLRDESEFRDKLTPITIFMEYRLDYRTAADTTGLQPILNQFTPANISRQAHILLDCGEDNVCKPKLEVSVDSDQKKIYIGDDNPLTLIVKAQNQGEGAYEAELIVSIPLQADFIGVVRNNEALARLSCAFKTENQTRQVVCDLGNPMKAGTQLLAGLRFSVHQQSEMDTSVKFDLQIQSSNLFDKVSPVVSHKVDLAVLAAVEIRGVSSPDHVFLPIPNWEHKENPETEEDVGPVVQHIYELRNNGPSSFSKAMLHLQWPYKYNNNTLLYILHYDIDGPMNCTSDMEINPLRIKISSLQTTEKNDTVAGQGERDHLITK
Sequence (P06756 891-1048 limits assumed): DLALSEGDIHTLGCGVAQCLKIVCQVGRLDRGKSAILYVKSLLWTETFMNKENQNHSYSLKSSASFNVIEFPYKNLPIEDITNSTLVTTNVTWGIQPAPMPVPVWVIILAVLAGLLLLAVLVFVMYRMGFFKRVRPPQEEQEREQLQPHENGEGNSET
Sequence (P05106 27-788): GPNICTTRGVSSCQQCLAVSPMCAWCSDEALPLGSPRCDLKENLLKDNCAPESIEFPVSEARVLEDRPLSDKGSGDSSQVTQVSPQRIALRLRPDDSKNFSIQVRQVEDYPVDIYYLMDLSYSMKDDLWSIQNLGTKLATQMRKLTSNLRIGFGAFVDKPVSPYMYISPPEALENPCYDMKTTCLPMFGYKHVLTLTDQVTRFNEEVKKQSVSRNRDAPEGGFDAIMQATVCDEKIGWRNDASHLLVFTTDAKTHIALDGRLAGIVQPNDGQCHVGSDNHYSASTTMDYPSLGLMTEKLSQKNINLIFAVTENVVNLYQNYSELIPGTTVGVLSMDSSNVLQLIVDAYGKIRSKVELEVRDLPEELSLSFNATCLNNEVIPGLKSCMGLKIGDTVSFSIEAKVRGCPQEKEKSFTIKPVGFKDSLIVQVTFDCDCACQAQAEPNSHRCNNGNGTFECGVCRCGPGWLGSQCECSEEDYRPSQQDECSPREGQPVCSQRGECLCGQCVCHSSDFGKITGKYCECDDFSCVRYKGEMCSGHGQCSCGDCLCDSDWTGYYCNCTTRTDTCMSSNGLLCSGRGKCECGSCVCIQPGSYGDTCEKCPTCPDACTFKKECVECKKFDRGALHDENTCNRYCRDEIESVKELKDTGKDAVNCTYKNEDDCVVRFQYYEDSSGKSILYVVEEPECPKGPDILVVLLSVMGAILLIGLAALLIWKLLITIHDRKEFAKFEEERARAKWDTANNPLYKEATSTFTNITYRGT
pIC50: −log10 of the molar value.
Measured Endpoint: pIC50

1. N=C(N)NC(=O)CCCOc1ccc(C[C@H](NC(=O)OCC23CC4CC(CC(C4)C2)C3)C(=O)O)cc1    7.49
2. O=C(CCc1ccc(C(=O)NC[C@H](NC(=O)OCC23CC4CC(CC(C4)C2)C3)C(=O)O)cc1)NC1=NCCCN1    7.49
